system: NCI-H226; assay: NCI tumour cell line growth inhibition, 48 h
Active and inactive are the calls of the source. Cut-off read from the data, not from the text of the source: active = GI50 up to about 1.1 µM and inactive = higher.
Respond using exactly one of the listed classes: yes (1) = active, no (0) = inactive

Examples from the recorded data:
{"Compound": "O=C(c1ccco1)N(Cc1ccco1)C(=S)Nc1ccccc1", "Classification": "no (0)"}
{"Compound": "CC(CCC(=O)O)C(=O)O (centres undefined)", "Classification": "no (0)"}
{"Compound": "NC1=NC(Cn2nc(-c3ccccc3)c3ccccc3c2=O)=NNC(=O)N1", "Classification": "no (0)"}
{"Compound": "CC(C)=CCNc1ncnc2c1ncn2CCC(=O)OC(C)(C)C", "Classification": "no (0)"}
{"Compound": "FC(F)(F)c1ccc2c(c1)nc(-c1ccccc1)n2CC1CCCN2CCCCC12 (centres undefined)", "Classification": "no (0)"}

Called result for COC(=O)C1Cc2c([nH]c3ccccc23)-c2[nH]c3ccccc3c2CC(NC(C)=O)C(=O)N2CCCC2C(=O)N1 (centres undefined)
yes (1)

Also check CCN(CC)CCNc1n[n+]([O-])c2ccccc2[n+]1[O-]
no (0)

Also check CC(=O)O[C@H]1C[C@@H](OC(C)=O)[C@@](C)(O)[C@@H]2[C@@H](OC(C)=O)[C@@]3(O)[C@H](/C=C(/CO)[C@H]4O[C@H]4[C@@H](OC(C)=O)[C@@]12C)OC(=O)[C@@H]3C
no (0)

Also check CCN(CC)CCNC(=O)c1cccc2nc3ccccc3nc12
no (0)
